From: patent US20240409645A1

Recorded pEC50, one value per entry.
Biological target: T1, human interleukin-2 receptor β-chain (IL-2Rβ; CD122), recombinant protein (human) (UniProt P14784)
T1 sequence: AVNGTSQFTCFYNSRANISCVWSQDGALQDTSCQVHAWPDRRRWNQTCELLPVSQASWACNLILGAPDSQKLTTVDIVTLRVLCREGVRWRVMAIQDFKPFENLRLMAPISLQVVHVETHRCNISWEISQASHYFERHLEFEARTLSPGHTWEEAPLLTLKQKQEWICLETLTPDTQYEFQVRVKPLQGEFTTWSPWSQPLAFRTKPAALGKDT
Test: ELISA, monovalent VHH-hFc
pEC50 here: minus log base 10 of the concentration, concentration in moles per litre.

binder="22-MP03F12 VHH-hFc, monospecific monovalent (Fc fusion, part only; not given: Both Fc arms and linker, not shown: another chain or arm of the molecule; a dimerising Fc or GST; large carriers; small tags and cut ends) VHH: EVQLVESGGGLVQAGGSLRLSCAASGSIFSINAMAWFRQVPGMERELVAAISRDGGASVYRDSVKGRFTISRDNSKNTVYLQMNTLKPEDTAIYVCAATRAIGWTARWITTDFDFWGQGTQVTVSS" obs_value=10.04

In one line, give reported pEC50 of the entry 24-MP06E05 VHH-hFc, monospecific monovalent (Fc fusion, part only; not given: Both Fc arms and linker, not shown: another chain or arm of the molecule; a dimerising Fc or GST; large carriers; small tags and cut ends) VHH: QVQLVESGGELVQGGASLRLSCAASGRTFSNANMAWFRQAPEKEREFVALITWSSGSTLYADSVKGRFTISRDNARKMVYLQMNSLKPEDTAVYYCAADGPPYSGTYYRYDTYDYWGQGTQVTVSS .
9.69
